This collection of values is drawn from patent US20090181898A1.

test: Clinical pharmacokinetics, 25 and 75 mg, compared to Adderall XR and Dexedrine Spansule; settings: human, in vivo, po, 75 mg, L-lysine-d-amphetamine intact conjugate AUClast, oral 75 mg L-lysine-d-amphetamine, mean
readout kind: AUC(0-t) (ng·h/mL)
Provide only the numeric value, understood in ng·h/mL.

q: For CC(Cc1ccccc1)NC(=O)C(N)CCCCN (stereo not shown) , what is its reported AUC(0-t)?
a: 58.1

====

assay: Clinical pharmacokinetics, 25 and 75 mg, compared to Adderall XR and Dexedrine Spansule; settings: human, in vivo, po, 25 mg, L-lysine-d-amphetamine intact conjugate T1/2, human, oral 25 mg L-lysine-d-amphetamine, individual subjects
readout kind: half-life
Please provide the amount together with its unit, number first.

q: Could you share which half-life value was measured for CC(Cc1ccccc1)NC(=O)C(N)CCCCN (stereo not shown) ?
a: 28.2 min

====

experiment: Pharmacokinetics in male beagle dogs after oral or 30-min intravenous administration, 1 mg/kg (LC/MS/MS); type: in vivo; settings: male, beagle, dog, plasma, po, 1 mg/kg, oral, 1 mg/kg d-amphetamine base, individual dogs, read-out: t1/2 of L-lysine-d-amphetamine (converted)
readout kind: half-life (min)
Quick note: give the figure in min, leave out the unit.

q: Dear colleague, I am looking for the recorded half-life of the following molecule: CC(Cc1ccccc1)NC(=O)C(N)CCCCN (stereo not shown)
a: 28.8

====

assay: Clinical pharmacokinetics, 25 and 75 mg, compared to Adderall XR and Dexedrine Spansule; details: human, in vivo, po, 25 mg, L-lysine-d-amphetamine intact conjugate concentration, oral 25 mg L-lysine-d-amphetamine, 12 h, individual subjects
readout kind: concentration at 12 h (ng/mL)
Give just the number in ng/mL; leave the unit off.

q: Suppose we examine the compound CC(Cc1ccccc1)NC(=O)C(N)CCCCN [L-lysine-d-amphetamine] ; what concentration at 12 h value has been reported?
a: 0

====

test: Clinical pharmacokinetics, 25 and 75 mg, compared to Adderall XR and Dexedrine Spansule; conditions: human, in vivo, po, 25 mg, L-lysine-d-amphetamine intact conjugate concentration, oral 25 mg L-lysine-d-amphetamine, 16 h, individual subjects
readout kind: concentration at 16 h (ng/mL)
Report as a plain number; the unit ng/mL is understood.

q: Entry CC(Cc1ccccc1)NC(=O)C(N)CCCCN (stereo not shown) has what concentration at 16 h?
a: 0

====

experiment: Clinical pharmacokinetics, 25 and 75 mg, compared to Adderall XR and Dexedrine Spansule; conditions: human, in vivo, po, 75 mg, L-lysine-d-amphetamine intact conjugate concentration, oral 75 mg L-lysine-d-amphetamine, 4 h, mean
readout kind: concentration at 4 h (ng/mL)
Use ng/mL as the unit, but write only the number.

q: Requested read-out: concentration at 4 h. Entry: CC(Cc1ccccc1)NC(=O)C(N)CCCCN (stereo not shown)
a: 0.8

====

assay: Clinical pharmacokinetics, 25 and 75 mg, compared to Adderall XR and Dexedrine Spansule; conditions: human, in vivo, po, 75 mg, L-lysine-d-amphetamine intact conjugate concentration, oral 75 mg L-lysine-d-amphetamine, 1 h, mean
readout kind: concentration at 1 h
Give your result as the value with the unit written after it.

q: Requested read-out: concentration at 1 h. Entry: CC(Cc1ccccc1)NC(=O)C(N)CCCCN [L-lysine-d-amphetamine]
a: 53 ng/mL

====

assay: Clinical steady-state pharmacokinetics, 70 mg capsules once daily for 7 days, healthy adults, fasting; conditions: human, in vivo, 70 mg, Mean AUC0-24 of intact L-lysine-d-amphetamine, healthy adults, 70 mg once daily, after dose 7
readout kind: AUC(0-t) (ng·h/mL)
Please state the figure in ng·h/mL; there is no need to write the unit.

q: Look up AUC(0-t): CC(Cc1ccccc1)NC(=O)C(N)CCCCN (stereo not shown)
a: 60.7

====

Catalogue of Percent Cmax (relative to Amphetamine) readings, one per entry.
assay: Intranasal bioavailability of peptide amphetamine conjugates (HCl salts, ELISA); details: Intranasal, rats
State just the number; it will be interpreted in %.

q: Param item = [2H]N(CC(=O)NC(C)Cc1ccccc1)C(=O)CN (stereo not shown) ; retrieve measured Percent Cmax (relative to Amphetamine).
a: 85

q: Which Percent Cmax (relative to Amphetamine) is listed for [2H]N(CC(=O)NC(C)Cc1ccccc1)C(=O)[C@@H](N)CCCCN (stereo partly shown) ?
a: 12

q: I would be grateful if you could share the reported Percent Cmax (relative to Amphetamine) for [2H]N1CCC[C@H]1C(=O)NC(C)Cc1ccccc1 (stereo partly shown) .
a: 2

q: Field request: Percent Cmax (relative to Amphetamine) | item: [2H]N[C@@H](Cc1c[nH]cn1)C(=O)NC(C)Cc1ccccc1 (stereo partly shown)
a: 42
